Listing of entries alongside the reported protein stability index.
B1: VAMP4 (parent)
chain: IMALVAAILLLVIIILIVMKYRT

# Variants of: B1
# Measurement protocol: protein stability index of a GFP-peptide fusion (GPS, HEK-293T) (PSI 1-6); higher = more stable;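 further: lentivirally expressed fusions sorted by FACS into six bins by GFP to DsRed ratio, PSI derived from sequencing read proportions per bin multiplied by bin number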
# Measurement conditions: c terminus: native
Just the number, please, no unit attached.

See these solved cases before continuing.
1. Y21C :: 3.21
2. A7D :: 2.37
3. I1C :: 3.16
4. V12G :: 3.32

INPUT: # protein stability index lookup, item "A7T"
OUTPUT: 3.4

INPUT: So what does the record say about protein stability index for "T23R" ?
OUTPUT: 2.99

INPUT: Please give the measured protein stability index for this variant: "L10N"
OUTPUT: 2.48

INPUT: Given "I15S" , state its recorded protein stability index.
OUTPUT: 2.65

INPUT: Entry under review: "V18W" . Reported protein stability index?
OUTPUT: 3.21

INPUT: Reported protein stability index, variant "I17C" : ____
OUTPUT: 3.11

INPUT: Item under review: "L16T" . Reported protein stability index?
OUTPUT: 3.47
